# Assay Remarks: In vivo human metabolism, plasma and urine pharmacokinetics after single oral dose of racemic Compound (I)
# Test Context: male, human, plasma, po, 400 mg, 6 hr postdose; single oral 400 mg Compound (I) racemic mixture, adult male subjects
Would you mind telling me the reported concentration at 6 hr of each entry?
Answers are plain numbers, in ng/mL.

{"columns": ["Molecule", "concentration at 6 hr [ng/mL]"],
 "data": [
  ["O=C(O)CSc1nnc(Br)n1-c1ccc(C2CC2)c2ccccc12 (racemic) [Compound (I)]", 3810]
]}

Next molecule, concentration at 6 hr to be filled in.
O=C(O)CSc1nnc(Br)n1-c1ccc(C2CC2)c2ccccc12 (single isomer, unassigned) [Atropisomer 1] yielded concentration at 6 hr of 1960

----------
# Assay Remarks: In vivo human metabolism, plasma and urine pharmacokinetics after single oral dose of racemic Compound (I)
# Test Context: male, human, plasma, po, 400 mg, 4 hr postdose; single oral 400 mg Compound (I) racemic mixture, adult male subjects
Measurement Label: concentration at 4 hr (ng/mL)
One number for each entry, in ng/mL.

{"columns": ["Compound", "concentration at 4 hr [ng/mL]"],
 "data": [
  ["O=C(O)CSc1nnc(Br)n1-c1ccc(C2CC2)c2ccccc12 (racemic) [Compound (I)]", 9080]
]}

Next compound, concentration at 4 hr to be filled in.
O=C(O)CSc1nnc(Br)n1-c1ccc(C2CC2)c2ccccc12 (single isomer, unassigned) [Atropisomer 1] yielded concentration at 4 hr of 4560

----------
# Assay Remarks: In vivo human metabolism, plasma and urine pharmacokinetics after single oral dose of racemic Compound (I)
# Test Context: male, human, plasma, po, 400 mg, 1.5 hr postdose; single oral 400 mg Compound (I) racemic mixture, adult male subjects
Measurement Label: concentration at 1.5 h (ng/mL)
One number for each entry, in ng/mL.

{"columns": ["Compound", "Unit Of Measure", "Result Number"],
 "data": [
  ["O=C(O)CSc1nnc(Br)n1-c1ccc(C2CC2)c2ccccc12 (racemic) [Compound (I)]", "ng/mL", 7860]
]}

Next compound, concentration at 1.5 h to be filled in.
O=C(O)CSc1nnc(Br)n1-c1ccc(C2CC2)c2ccccc12 (single isomer, unassigned) [Atropisomer 1] yielded concentration at 1.5 h of 3600

----------
Would you mind telling me the reported concentration at 2 h of each entry?
# Assay Remarks: In vivo human metabolism, plasma and urine pharmacokinetics after single oral dose of racemic Compound (I)
# Test Context: male, human, plasma, po, 400 mg, 2 hr postdose; single oral 400 mg Compound (I) racemic mixture, adult male subjects
Give bare numbers, in µg/mL.

{"columns": ["Compound", "Unit Of Measure", "concentration at 2 h"],
 "data": [
  ["O=C(O)CSc1nnc(Br)n1-c1ccc(C2CC2)c2ccccc12 (racemic) [Compound (I)]", "µg/mL", 9.38]
]}

Next compound, concentration at 2 h to be filled in.
O=C(O)CSc1nnc(Br)n1-c1ccc(C2CC2)c2ccccc12 (single isomer, unassigned) [Atropisomer 1] yielded concentration at 2 h of 4.46

----------
Would you mind telling me the reported Tmax of each entry?
# Assay Remarks: In vivo human metabolism, plasma and urine pharmacokinetics after single oral dose of racemic Compound (I)
# Test Context: male, human, plasma, po, 400 mg; read-out: Tmax: Time of occurrence of maximum observed concentration
One number for each entry, in h.

{"columns": ["Compound", "Tmax / h"],
 "data": [
  ["O=C(O)CSc1nnc(Br)n1-c1ccc(C2CC2)c2ccccc12 (racemic) [Compound (I)]", 3]
]}

Next compound, Tmax to be filled in.
O=C(O)CSc1nnc(Br)n1-c1ccc(C2CC2)c2ccccc12 (single isomer, unassigned) [Atropisomer 1] yielded Tmax of 3

----------
Would you mind telling me the reported concentration at 10 hr of each entry?
# Assay Remarks: In vivo human metabolism, plasma and urine pharmacokinetics after single oral dose of racemic Compound (I)
# Test Context: male, human, plasma, po, 400 mg, 10 hr postdose; single oral 400 mg Compound (I) racemic mixture, adult male subjects
Numbers only, in ng/mL.

{"columns": ["Compound", "concentration at 10 hr [ng/mL]"],
 "data": [
  ["O=C(O)CSc1nnc(Br)n1-c1ccc(C2CC2)c2ccccc12 (racemic) [Compound (I)]", 815]
]}

Next compound, concentration at 10 hr to be filled in.
O=C(O)CSc1nnc(Br)n1-c1ccc(C2CC2)c2ccccc12 (single isomer, unassigned) [Atropisomer 1] yielded concentration at 10 hr of 415

----------
# Assay Remarks: In vivo human metabolism, plasma and urine pharmacokinetics after single oral dose of racemic Compound (I)
# Test Context: male, human, plasma, po, 400 mg, 3 hr postdose; single oral 400 mg Compound (I) racemic mixture, adult male subjects
Would you mind telling me the reported concentration at 3 hr of each entry?

List the reported concentration at 3 hr of each compound below.
1. O=C(O)CSc1nnc(Br)n1-c1ccc(C2CC2)c2ccccc12 (single isomer, unassigned) [Atropisomer 1]
2. O=C(O)CSc1nnc(Br)n1-c1ccc(C2CC2)c2ccccc12 (racemic) [Compound (I)]

**A:**
["5740 ng/mL", "11400 ng/mL"]

----------
Would you mind telling me the reported concentration at 5 hr of each entry?
# Assay Remarks: In vivo human metabolism, plasma and urine pharmacokinetics after single oral dose of racemic Compound (I)
# Test Context: male, human, plasma, po, 400 mg, 5 hr postdose; single oral 400 mg Compound (I) racemic mixture, adult male subjects
Numbers only, in ng/mL.

{"columns": ["Compound", "concentration at 5 hr (ng/mL)"],
 "data": [
  ["O=C(O)CSc1nnc(Br)n1-c1ccc(C2CC2)c2ccccc12 (single isomer, unassigned) [Atropisomer 1]", 3430]
]}

Next compound, concentration at 5 hr to be filled in.
O=C(O)CSc1nnc(Br)n1-c1ccc(C2CC2)c2ccccc12 (racemic) [Compound (I)] yielded concentration at 5 hr of 6980

----------
# Assay Remarks: In vivo human metabolism, plasma and urine pharmacokinetics after single oral dose of racemic Compound (I)
# Test Context: male, human, plasma, po, 400 mg, Plasma Concentration (Mean); single oral 400 mg racemic Compound (I), human; read-out: Cmax
Would you mind telling me the reported Cmax of each entry?
Give bare numbers, in ng/mL.

{"columns": ["Molecule", "Unit Of Measure", "Cmax"],
 "data": [
  ["O=C(O)CSc1nnc(Br)n1-c1ccc(C2CC2)c2ccccc12 (single isomer, unassigned) [Atropisomer 1]", "ng/mL", 6600]
]}

Next molecule, Cmax to be filled in.
O=C(O)CSc1nnc(Br)n1-c1ccc(C2CC2)c2ccccc12 (racemic) [Compound (I)] yielded Cmax of 13500

----------
Would you mind telling me the reported concentration at 24 h of each entry?
# Assay Remarks: In vivo human metabolism, plasma and urine pharmacokinetics after single oral dose of racemic Compound (I)
# Test Context: male, human, plasma, po, 400 mg, 24 hr postdose; single oral 400 mg Compound (I) racemic mixture, adult male subjects
Number plus unit, in that order.

{"columns": ["Compound", "concentration at 24 h"],
 "data": [
  ["O=C(O)CSc1nnc(Br)n1-c1ccc(C2CC2)c2ccccc12 (racemic) [Compound (I)]", "84 ng/mL"]
]}

Next compound, concentration at 24 h to be filled in.
O=C(O)CSc1nnc(Br)n1-c1ccc(C2CC2)c2ccccc12 (single isomer, unassigned) [Atropisomer 1] yielded concentration at 24 h of 33 ng/mL

----------
Would you mind telling me the reported concentration at 12 hr of each entry?
# Assay Remarks: In vivo human metabolism, plasma and urine pharmacokinetics after single oral dose of racemic Compound (I)
# Test Context: male, human, plasma, po, 400 mg, 12 hr postdose; single oral 400 mg Compound (I) racemic mixture, adult male subjects
One number for each entry, in ng/mL.

{"columns": ["Molecule", "concentration at 12 hr / ng/mL"],
 "data": [
  ["O=C(O)CSc1nnc(Br)n1-c1ccc(C2CC2)c2ccccc12 (single isomer, unassigned) [Atropisomer 1]", 248]
]}

Next molecule, concentration at 12 hr to be filled in.
O=C(O)CSc1nnc(Br)n1-c1ccc(C2CC2)c2ccccc12 (racemic) [Compound (I)] yielded concentration at 12 hr of 503

----------
# Assay Remarks: In vivo human metabolism, plasma and urine pharmacokinetics after single oral dose of racemic Compound (I)
# Test Context: male, human, plasma, po, 400 mg, plasma, geometric mean; single oral 400 mg racemic Compound (I), human; read-out: t1/2: Apparent terminal half-life (converted)
Would you mind telling me the reported half-life of each entry?
Answers are plain numbers, in h.

{"columns": ["Compound", "half-life, h"],
 "data": [
  ["O=C(O)CSc1nnc(Br)n1-c1ccc(C2CC2)c2ccccc12 (racemic) [Compound (I)]", 4.18]
]}

Next compound, half-life to be filled in.
O=C(O)CSc1nnc(Br)n1-c1ccc(C2CC2)c2ccccc12 (single isomer, unassigned) [Atropisomer 1] yielded half-life of 3.59
